Target: GSK3α (Homo sapiens, UniProt P49840)
Sequence (P49840 whole entry, species assumed): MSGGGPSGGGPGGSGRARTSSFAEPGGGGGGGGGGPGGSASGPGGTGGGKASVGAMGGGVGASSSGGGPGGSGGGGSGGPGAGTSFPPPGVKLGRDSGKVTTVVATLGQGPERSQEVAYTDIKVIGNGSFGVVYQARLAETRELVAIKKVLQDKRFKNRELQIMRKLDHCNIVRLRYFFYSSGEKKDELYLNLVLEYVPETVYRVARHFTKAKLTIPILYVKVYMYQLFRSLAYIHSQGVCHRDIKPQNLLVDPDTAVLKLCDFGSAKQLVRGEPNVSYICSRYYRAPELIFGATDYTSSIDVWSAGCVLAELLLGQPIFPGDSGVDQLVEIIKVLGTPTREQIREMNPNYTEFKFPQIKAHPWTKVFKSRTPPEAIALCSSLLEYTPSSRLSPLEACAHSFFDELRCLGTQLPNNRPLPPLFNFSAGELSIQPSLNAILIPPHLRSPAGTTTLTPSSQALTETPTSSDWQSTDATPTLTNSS
Test: biochemical
Details: second value of the cell; 250 pM enzyme, 20 uM ATP, 20 hours at room temperature; read-out: GSK3β/α (nM): GSK3α IC50
IC50 vs 3 nM: less than gives class 1; not less than gives class 0.

- CCCc1ccc(-c2ccncc2NC(=O)c2ccnc(NC(=O)C3CC3)c2)cc1: class 0
- O=C(Nc1cncc(-c2ccccn2)c1)c1ccnc(NC(=O)C2CC2)c1: class 1
- CC1(C)CC1C(=O)Nc1cc(C(=O)Nc2cnccc2-c2ccccc2)ccn1 (stereo not shown): class 0
- O=C(Nc1cnn(CC(F)(F)F)c1)c1ccnc(NC(=O)C2CC2)c1: class 0
- COc1cccc(-c2cncc(NC(=O)c3ccnc(NC(=O)C4CC4)c3)c2)n1: class 1
- O=C(Nc1cncc(-c2cccnc2)c1)c1ccnc(NC(=O)C2CC2)c1: class 1
- O=C(Nc1cnc2ccccc2c1)c1ccnc(NC(=O)C2CC2)c1: class 0
- COc1cccc(-c2cncc(NC(=O)c3ccnc(NC(=O)C4CC4)c3)c2)c1F: class 1
- O=C(Nc1cncc(-c2cccc(Cl)c2Cl)c1)c1ccnc(NC(=O)C2CC2)c1: class 1
- O=C(Nc1cncc(-c2cccc(F)n2)c1)c1ccnc(NC(=O)C2CC2)c1: class 1
- Cc1ccccc1-c1cncc(NC(=O)c2ccnc(NC(=O)C3CC3)c2)c1: class 0
- O=C(Nc1cnccc1-c1ccc(C(F)(F)F)cc1Cl)c1ccnc(NC(=O)C2CC2)c1: class 0
- CN(C)C(=O)c1ccc(-c2ccncc2NC(=O)c2ccnc(NC(=O)C3CC3)c2)c(F)c1: class 0
